experimental-details: in vitro
study-conditions: human, hela cells, % viability
measurement-name: viability at 28.5 h, 10 µM (%)
# number only, unit % dropped from output

Field: example entries. Status: answers known.
[[record]]
compound = "CC1=C(c2ccc(OC(C)(C)CN3CCCC3)cc2)C(C)CCC1 (stereo not drawn) [CBK012357C]"
measurement = 86.1

[[record]]
compound = "COCCNC(=O)Cn1c(-c2cccs2)cc2cccnc21 [CBK282554]"
measurement = 109

[[record]]
compound = "COCCN1C(=O)C2(CC(=O)N(CCN3CCCC3=O)C2=O)c2cc(OC)ccc21 (stereo not drawn) [CBK075189]"
measurement = 92.4

[[record]]
compound = "COc1ccc(OC)c(-c2nc(Nc3ccc(Cl)cc3Cl)sc2CC(=O)O)c1 [CBK264175]"
measurement = 103

[[record]]
compound = "COc1ccc(CNc2cnc3ccccc3c2)c(O)c1 [CBK293951]"
measurement = 87.5

[[record]]
compound = "COc1ccc(-c2cnn(-c3cncnc3)n2)cc1 [CBK112763]"
measurement = 94.5

[[record]]
compound = "CNS(=O)(=O)c1cccc(C(=O)N(C)Cc2ccsc2)c1 [CBK303993]"
measurement = 113

[[record]]
compound = "CC1(C)CC(NC(=O)c2cc3cccnc3[nH]2)CCO1 (stereo not drawn) [CBK305467]"
measurement = 82.3

[[record]]
compound = "c1ccc(CNc2nccn3ccnc23)nc1 [CBK037526]"
measurement = 104

[[record]]
compound = "O=C(Nc1ccc(S(=O)(=O)Nc2ccc(Cl)c(C(F)(F)F)c2)cc1)c1ccc(CN2CCOCC2)cc1 [CBK264777]"
measurement = 104


GET /value?item= Cc1ccc(OCCCN2CCN(C)CC2)c(Cc2ccccc2)c1 [CBK269650C] &field=viability at 28.5 h, 10 µM returns 104

GET /value?item= Cc1nc(CN2CCCC(NCc3ccc4ccccc4c3)C2)no1 (stereo not drawn) [CBK305160] &field=viability at 28.5 h, 10 µM returns 96.5

###

experimental-details: in vitro
study-conditions: human, hela cells, % viability
Property: viability at 28.5 h, 10 µM; scope: individual molecules
# number only, unit % dropped from output

[[record]]
molecule = "CN(C)Cc1cc(CN(C)C)c(O)c(C(C)(C)C)n1"
unit_info = "%"
measurement = 90.6

[[record]]
molecule = "CCCn1cc(C(=O)NCc2ccc(Cl)cc2)c(=O)c2cc(CN3CCOCC3)sc21"
unit_info = "%"
measurement = 93.8

[[record]]
molecule = "CCOC(=O)c1cc(-c2ccc(OC)cc2)nn1-c1ccc(C(=O)O)cc1"
unit_info = "%"
measurement = 87.9

[[record]]
molecule = "Cc1csc(N2CCC(Nc3cc(CO)ccc3Cl)CC2)n1"
unit_info = "%"
measurement = 89.7

[[record]]
molecule = "CC(C)c1ccc(C(=O)NC2CCN(CC(F)(F)F)C2=O)nc1 (stereo not shown)"
unit_info = "%"
measurement = 108


GET /value?item= `Cc1cc(/C=C2\SC(=O)N(CC(=O)Nc3ccccc3F)C2=O)c(C)n1-c1cccnc1` &field=viability at 28.5 h, 10 µM returns 95.5

GET /value?item= `O=C(CNS(=O)(=O)c1ccc(Br)cc1)NCc1cccnc1` &field=viability at 28.5 h, 10 µM returns 97.2

GET /value?item= `Nc1ncc(-c2ccco2)nc1NCC1CCOCC1` &field=viability at 28.5 h, 10 µM returns 100

Data credit: paper PMC12040169
